- systemTested: human SARM1(50-724) (Homo sapiens)
- Construct: 40 nM human SARM1(50-724)
- assaySummary: SARM1 NADase biochemical assay (HPLC peak areas of NAD and NAM)
- conditionInfo: read-out: Avg NAD % inhibition at 50 μM
Please respond with reported inhibition at 50 µM for every item in the list.

human SARM1(50-724) (Homo sapiens) inhibition at 50 µM of N#Cc1ccccc1C(=O)Nc1ccn(Cc2ccncc2)n1 [Example 51] is 0 to 50%

human SARM1(50-724) (Homo sapiens) inhibition at 50 µM of COc1ccc(C(=O)Nc2ccn(Cc3ccncc3)n2)cc1OC [Example 41] is 0 to 50%

human SARM1(50-724) (Homo sapiens) inhibition at 50 µM of CN(c1ccn(Cc2ccncc2)n1)S(=O)(=O)c1cccc(F)c1 [Example 77] is 0 to 50%

human SARM1(50-724) (Homo sapiens) inhibition at 50 µM of CC(c1ccncc1)n1ccc(N(C)c2nccs2)n1 (racemic) [Example 91] is 0 to 50%

human SARM1(50-724) (Homo sapiens) inhibition at 50 µM of COc1ccccc1C(=O)Nc1ccn(Cc2ccncc2)n1 [Example 44] is 0 to 50%

human SARM1(50-724) (Homo sapiens) inhibition at 50 µM of O=C(Nc1ccn(Cc2ccncc2)n1)c1cccnc1 [Example 62] is 0 to 50%

human SARM1(50-724) (Homo sapiens) inhibition at 50 µM of O=S(=O)(Nc1ccn(Cc2ccncc2)n1)c1ccccc1 [Example 70] is 51 to 100%

human SARM1(50-724) (Homo sapiens) inhibition at 50 µM of FCCNc1ccn(Cc2ccncc2)n1 [Example 96] is 51 to 100%

human SARM1(50-724) (Homo sapiens) inhibition at 50 µM of O=C(Nc1ccn(Cc2ccncc2)n1)c1ccc(Cl)cc1 [Example 55] is 51 to 100%

human SARM1(50-724) (Homo sapiens) inhibition at 50 µM of O=C(Nc1ccn(Cc2ccncc2)n1)c1ccccc1 [Example 69] is 51 to 100%

human SARM1(50-724) (Homo sapiens) inhibition at 50 µM of COc1ccc(S(=O)(=O)N(C)c2ccn(Cc3ccncc3)n2)cc1 [Example 75] is 0 to 50%

human SARM1(50-724) (Homo sapiens) inhibition at 50 µM of CCNc1ccn(Cc2ccncc2)n1 [Example 85] is 0 to 50%

human SARM1(50-724) (Homo sapiens) inhibition at 50 µM of O=C(Cc1ccccc1)Nc1ccn(Cc2ccncc2)n1 [Example 36] is 0 to 50%

human SARM1(50-724) (Homo sapiens) inhibition at 50 µM of CC(=O)Nc1ccn(Cc2ccncc2)n1 [Example 87] is 0 to 50%

human SARM1(50-724) (Homo sapiens) inhibition at 50 µM of FC(c1ccncc1)n1ccc(CC(F)(F)F)n1 (racemic) [Example 105] is 0 to 50%

====

Please respond with reported inhibition at 50 µM for every item in the list.
- systemTested: human SARM1(50-724) (Homo sapiens, UniProt Q6SZW1)
- Construct: 40 nM human SARM1(50-724)
- Sequence (Q6SZW1 50-724): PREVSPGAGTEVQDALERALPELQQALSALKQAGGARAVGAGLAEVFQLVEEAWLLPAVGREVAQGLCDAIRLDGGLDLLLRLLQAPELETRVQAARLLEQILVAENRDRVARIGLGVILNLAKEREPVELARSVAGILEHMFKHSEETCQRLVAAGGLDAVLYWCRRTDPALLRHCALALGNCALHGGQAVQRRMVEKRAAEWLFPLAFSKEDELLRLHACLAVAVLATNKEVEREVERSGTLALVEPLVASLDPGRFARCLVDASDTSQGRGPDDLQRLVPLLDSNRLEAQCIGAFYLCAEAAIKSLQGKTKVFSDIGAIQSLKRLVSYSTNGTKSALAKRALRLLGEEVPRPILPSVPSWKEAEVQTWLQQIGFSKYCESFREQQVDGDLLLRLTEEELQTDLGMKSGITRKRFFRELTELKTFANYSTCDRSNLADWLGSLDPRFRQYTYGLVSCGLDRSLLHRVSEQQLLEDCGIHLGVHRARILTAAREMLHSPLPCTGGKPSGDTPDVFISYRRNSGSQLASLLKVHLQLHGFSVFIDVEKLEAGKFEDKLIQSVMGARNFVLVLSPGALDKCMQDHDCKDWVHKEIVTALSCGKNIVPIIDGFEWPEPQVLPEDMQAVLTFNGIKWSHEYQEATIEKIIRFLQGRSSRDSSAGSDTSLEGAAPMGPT
- assaySummary: SARM1 NADase biochemical assay (HPLC peak areas of NAD and NAM)
- conditionInfo: read-out: Avg NAM % inhibition at 50 μM

Per the record, COc1ccc(S(=O)(=O)N(C)c2ccn(Cc3ccncc3)n2)cc1 has inhibition at 50 µM of 0 to 50%

Per the record, O=S(=O)(Nc1ccn(Cc2ccncc2)n1)c1ccccc1 has inhibition at 50 µM of 51 to 100%

Per the record, COc1ccc(C(=O)Nc2ccn(Cc3ccncc3)n2)cc1OC has inhibition at 50 µM of 0 to 50%

Per the record, FCCNc1ccn(Cc2ccncc2)n1 has inhibition at 50 µM of 51 to 100%

Per the record, N#Cc1ccccc1C(=O)Nc1ccn(Cc2ccncc2)n1 has inhibition at 50 µM of 0 to 50%

Per the record, CC(c1ccncc1)n1ccc(N(C)c2nccs2)n1 (racemic) has inhibition at 50 µM of 0 to 50%

Per the record, FC(c1ccncc1)n1ccc(CC(F)(F)F)n1 (racemic) has inhibition at 50 µM of 0 to 50%

Per the record, COc1ccccc1C(=O)Nc1ccn(Cc2ccncc2)n1 has inhibition at 50 µM of 0 to 50%

Per the record, CC(=O)Nc1ccn(Cc2ccncc2)n1 has inhibition at 50 µM of 0 to 50%

Per the record, O=C(Nc1ccn(Cc2ccncc2)n1)c1cccnc1 has inhibition at 50 µM of 0 to 50%

Per the record, CN(c1ccn(Cc2ccncc2)n1)S(=O)(=O)c1cccc(F)c1 has inhibition at 50 µM of 0 to 50%

Per the record, CCNc1ccn(Cc2ccncc2)n1 has inhibition at 50 µM of 0 to 50%

Per the record, O=C(Nc1ccn(Cc2ccncc2)n1)c1ccc(Cl)cc1 has inhibition at 50 µM of 51 to 100%

Per the record, O=C(Nc1ccn(Cc2ccncc2)n1)c1ccccc1 has inhibition at 50 µM of 51 to 100%

Per the record, O=C(Cc1ccccc1)Nc1ccn(Cc2ccncc2)n1 has inhibition at 50 µM of 0 to 50%
